biological target: CYP3A4 (Homo sapiens); assay: CYP inhibition assay, CYP3A4 (substrates midazolam and testosterone); format: in vitro ADME; conditions: human, probe midazolam; Substrate = midazolam, 40 μM
Sequence (P08684 whole entry): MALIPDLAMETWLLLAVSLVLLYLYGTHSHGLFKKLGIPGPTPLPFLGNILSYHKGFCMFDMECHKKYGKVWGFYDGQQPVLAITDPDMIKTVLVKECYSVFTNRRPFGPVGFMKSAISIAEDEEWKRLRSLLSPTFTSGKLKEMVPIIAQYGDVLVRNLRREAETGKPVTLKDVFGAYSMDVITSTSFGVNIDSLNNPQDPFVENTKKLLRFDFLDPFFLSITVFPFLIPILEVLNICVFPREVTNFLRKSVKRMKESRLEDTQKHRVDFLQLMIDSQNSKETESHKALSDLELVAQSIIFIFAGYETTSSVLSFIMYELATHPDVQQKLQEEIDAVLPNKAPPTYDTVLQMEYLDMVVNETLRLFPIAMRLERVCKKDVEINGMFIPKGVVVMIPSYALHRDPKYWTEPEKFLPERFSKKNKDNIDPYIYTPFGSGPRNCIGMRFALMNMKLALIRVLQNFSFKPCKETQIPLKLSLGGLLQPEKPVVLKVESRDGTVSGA
Observation type: inhibition at 40 µM (%)

[[record]]
compound = "N[C@@]1(c2ccccc2Cl)CCC[C@@H](O)C1=O [2R,6R-hydroxynorketamine]"
observation_type = "inhibition at 40 µM"
measure_unit = "%"
quantitative_readout = 43.7


###

target: CYP2C19 (Homo sapiens, UniProt P33261); test: CYP inhibition assay, CYP2C19; type: in vitro ADME; settings: human; 0.4 μM
Sequence (P33261 whole entry): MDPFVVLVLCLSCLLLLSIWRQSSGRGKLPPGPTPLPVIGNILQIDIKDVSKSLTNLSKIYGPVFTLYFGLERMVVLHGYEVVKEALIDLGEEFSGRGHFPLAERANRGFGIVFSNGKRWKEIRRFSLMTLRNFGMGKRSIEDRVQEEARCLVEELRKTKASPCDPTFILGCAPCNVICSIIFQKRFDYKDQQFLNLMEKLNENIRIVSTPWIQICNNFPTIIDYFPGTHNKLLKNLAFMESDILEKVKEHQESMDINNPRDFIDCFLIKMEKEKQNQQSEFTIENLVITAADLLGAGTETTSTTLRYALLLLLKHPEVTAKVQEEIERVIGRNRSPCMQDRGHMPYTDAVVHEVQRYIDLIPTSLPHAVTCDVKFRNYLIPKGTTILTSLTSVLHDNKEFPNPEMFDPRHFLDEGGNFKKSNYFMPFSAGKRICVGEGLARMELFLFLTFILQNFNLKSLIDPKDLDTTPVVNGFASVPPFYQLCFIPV
Observation type: inhibition at 0.4 µM

[[record]]
compound = "N[C@@]1(c2ccccc2Cl)CCC[C@@H](O)C1=O [2R,6R-hydroxynorketamine]"
result = "-2.01%"

